tested on: 380; assay: selective drug sensitivity score (sDSS, relative to normal bone marrow) (sDSS (score)); higher = more potent and effective on the cell line relative to normal bone marrow cells; settings: 72 h;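 note: ALL cell lines in 384-well plates, five doses spanning 10,000-fold, each plate scaled between vehicle and 100 µmol/L benzalkonium chloride controls, sDSS an adapted area-under-curve metric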
Measured selective drug sensitivity score accompanies every entry in the list below.

{"compound": "N[C@@H]1CCCN(c2c(/C=C3\\SC(=O)NC3=O)cccc2-c2ccccc2)C1 [AZD1208] (top concentration 10000 nM)", "selective drug sensitivity score": 14.8}
{"compound": "CNC(=O)c1ccc(-c2cnc3ncc(Cc4ccc5ncccc5c4)n3n2)cc1F [Capmatinib] (top concentration 1000 nM)", "selective drug sensitivity score": 2.04}
{"compound": "CCN1CCN(Cc2ccc(Nc3ncc(F)c(-c4cc(F)c5nc(C)n(C(C)C)c5c4)n3)nc2)CC1 [Abemaciclib] (top concentration 2500 nM)", "selective drug sensitivity score": -6.86}
{"compound": "CNC(=O)c1cccc2cc(Oc3ccnc4cc(OCC5(N)CC5)c(OC)cc34)ccc12 [Lucitanib] (top concentration 10000 nM)", "selective drug sensitivity score": 1.18}
{"compound": "COc1cc(Br)c(Nc2nc(-c3c(C)nc4ncccn34)cs2)c(Br)c1 [PTC-209] (top concentration 10000 nM)", "selective drug sensitivity score": -1.48}
{"compound": "Oc1ccc2c(c1)CC[C@H](c1ccccc1)[C@@H]2c1ccc(OCCN2CCCC2)cc1 [Lasofoxifene] (top concentration 1000 nM)", "selective drug sensitivity score": -1.28}

----------
In this section we review reported selective drug sensitivity score values for a set of compounds.
tested on: COG-LL-319h; assay: selective drug sensitivity score (sDSS, relative to normal bone marrow) (sDSS (score)); higher = more potent and effective on the cell line relative to normal bone marrow cells; conditions: 72 h

{"compound": "COc1cc2c(Oc3ccc4[nH]c(C)cc4c3F)ncnc2cc1OCCCN1CCCC1 [Cediranib] (top concentration 1000 nM)", "selective drug sensitivity score": 0}
{"compound": "CN1CC[C@H](c2c(O)cc(O)c3c(=O)cc(-c4ccccc4Cl)oc23)[C@H](O)C1 [Alvocidib] (top concentration 10000 nM)", "selective drug sensitivity score": -2.7}
{"compound": "CCOC(=O)C1=CCCC[C@H]1S(=O)(=O)Nc1ccc(F)cc1Cl [Resatorvid] (top concentration 10000 nM)", "selective drug sensitivity score": 0}
{"compound": "O=C(O)C(=O)O.[NH-][C@@H]1CCCC[C@H]1[NH-].[Pt+2] [Oxaliplatin] (top concentration 100000 nM)", "selective drug sensitivity score": 15.6}
{"compound": "Cc1ccc(C(=O)N(CCCN)[C@@H](c2oc3cc(Cl)ccc3c(=O)c2Cc2ccccc2)C(C)C)cc1 (top concentration 100 nM)", "selective drug sensitivity score": 13}
{"compound": "CNC(=O)c1cc(Oc2ccc(NC(=O)Nc3ccc(Cl)c(C(F)(F)F)c3)cc2)ccn1 [Sorafenib] (top concentration 1000 nM)", "selective drug sensitivity score": 0}

----------
tested on: KASUMI-10; assay: selective drug sensitivity score (sDSS, relative to normal bone marrow) (sDSS (score)); higher = more potent and effective on the cell line relative to normal bone marrow cells; details: 72 h
measured_parameter: selective drug sensitivity score

{"molecule": "CC#CC(=O)N1CCC[C@H]1c1nc(-c2ccc(C(=O)Nc3ccccn3)cc2)c2c(N)nccn12 [Acalabrutinib] (top concentration 1000 nM)", "value_observed": 1.8}
{"molecule": "COc1cccc2c1C(=O)c1c(O)c3c(c(O)c1C2=O)C[C@@](O)(C(C)=O)C[C@@H]3O[C@H]1C[C@H](N)[C@H](O)[C@H](C)O1 [Daunorubicin] (top concentration 1000 nM)", "value_observed": 9.06}
{"molecule": "COc1cc(N2CCC(N3CCN(C)CC3)CC2)ccc1Nc1ncnc(Nc2ccccc2S(=O)(=O)C(C)C)n1 [ASP3026] (top concentration 10000 nM)", "value_observed": 2.86}
{"molecule": "CC(C)(O)CC(=O)NCCn1ccc2ncnc(Nc3ccc(Oc4cccc(C(F)(F)F)c4)c(Cl)c3)c21 [TAK-285] (top concentration 2500 nM)", "value_observed": 0}
{"molecule": "C=CCN(/C=C1/C(=O)O[C@H](COC)[C@@]2(C)C1=C(O)C(=O)C1=C2[C@H](OC(C)=O)C[C@]2(C)C(=O)CC[C@@H]12)CC=C [Sonolisib] (top concentration 10000 nM)", "value_observed": -0.76}
